# target_system: N-glycosylase/DNA lyase (Homo sapiens) (UniProt O15527);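 note: OGG1 cleavage of a quenched duplex DNA oligonucleotide, coupled to APE1 for strand incision, read as fluorescence at 594 nm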
# Sequence (O15527 whole entry): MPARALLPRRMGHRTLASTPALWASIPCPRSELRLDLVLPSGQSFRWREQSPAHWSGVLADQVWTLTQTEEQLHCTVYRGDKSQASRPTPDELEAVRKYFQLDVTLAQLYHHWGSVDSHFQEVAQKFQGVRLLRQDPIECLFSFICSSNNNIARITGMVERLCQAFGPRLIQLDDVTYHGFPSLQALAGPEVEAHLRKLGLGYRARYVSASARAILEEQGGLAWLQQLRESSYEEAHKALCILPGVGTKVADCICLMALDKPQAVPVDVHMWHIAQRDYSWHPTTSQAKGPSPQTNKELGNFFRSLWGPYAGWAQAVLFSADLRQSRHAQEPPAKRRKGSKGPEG
# test_parameters: Compound Concentration 10.0 uM, Hit No
# Description: Inhibition of OGG1 by quantifying inhibition of OGG1-mediated cleavage and dissociation of quenched duplex DNA oligonucleotides, measured as fluorescence at 594 nm. To generate a functional strand incision and increase turn-over this assay is coupled to APE1.
reported_property: inhibition (%)
API: value field is a number in %; no unit string.

What does the record list as inhibition for CN(C(=O)Cc1ccc(Cl)c(Cl)c1)C(CN1CCCC1)c1cccc(OCC(=O)O)c1 (stereo not given) ?
-6.71

Moving on to COc1cc(Nc2nccc(-c3cnn4nc(OC)ccc34)n2)cc(C(F)(F)F)c1
8.51

Moving on to N#Cc1c[nH]c2c(C(=O)N3CCN(CCc4ccc(F)cc4)CC3)cccc12
-8.41

Moving on to CCCCC(=O)N(Cc1ccc(-c2ccccc2C(=O)O)cc1)c1ccccc1
-7.96

Moving on to C/C(=N\NC(=O)[C@@H]1C(=O)NC[C@H]1c1ccccc1)c1cccc(Br)c1
-0.141

Moving on to CCCCCCNC(=O)Nc1ccc(S(=O)(=O)Nc2ccc(CCNC[C@H](O)COc3ccc(O)cc3)cc2)cc1
3.62

Moving on to CC(C)[C@@H]1CC[C@@H](C)C[C@@H]1P(=O)(c1ccccc1)c1ccccc1
-2.54

Moving on to NCCc1c[nH]cn1
0.419

Moving on to Cc1c(P(=S)(c2ccccc2)c2ccccc2)n2ccccc2[n+]1C/C=C/c1ccccc1
1.08

Moving on to CSc1cc2c(cc1C(F)(F)F)N(C(=O)Nc1cccnc1)CC2
-1.82

Source of measurements: ChEMBL document CHEMBL5665443
